Cited source for all entries: the supplement of paper PMC7877785

assay: self-splicing fitness, log relative to wild type (ln ratio); higher = more splicing; Tetrahymena group I intron in knt gene, E. coli kanamycin selection, DiMSum; sequences stand for … in CUCUCU…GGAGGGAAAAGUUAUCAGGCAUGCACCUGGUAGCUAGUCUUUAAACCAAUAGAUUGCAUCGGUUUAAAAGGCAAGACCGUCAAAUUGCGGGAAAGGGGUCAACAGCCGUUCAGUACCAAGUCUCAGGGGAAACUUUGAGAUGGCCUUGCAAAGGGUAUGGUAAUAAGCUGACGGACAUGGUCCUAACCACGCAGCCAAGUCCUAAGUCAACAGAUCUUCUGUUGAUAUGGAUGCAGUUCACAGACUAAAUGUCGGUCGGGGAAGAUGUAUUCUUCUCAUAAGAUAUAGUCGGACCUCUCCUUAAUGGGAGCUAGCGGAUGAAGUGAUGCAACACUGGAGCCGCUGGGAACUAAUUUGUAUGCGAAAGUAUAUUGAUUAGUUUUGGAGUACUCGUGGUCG; details: 30 °C;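 also: selection with 25 µg/mL kanamycin versus none on LB agar overnight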
Threshold rule: self-splicing fitness (ln) greater than or equal to -2 is Fulfilled; below that, Not fulfilled.

Qu. Kindly determine if self-splicing fitness (ln) recorded for GAUCAGCAAUAUUACGUGUA is above or exactly -2.
Ans. Fulfilled

Qu. Kindly determine if self-splicing fitness (ln) recorded for CUAAAGCAAUAUUACGCGUG is above or exactly -2.
Ans. Fulfilled

Qu. Kindly determine if self-splicing fitness (ln) recorded for UACUAGCAAUAUUACGAUAU is above or exactly -2.
Ans. Not fulfilled

Qu. Kindly determine if self-splicing fitness (ln) recorded for AGAAAGCAAUAUUACGUCCA is above or exactly -2.
Ans. Fulfilled

Qu. Kindly determine if self-splicing fitness (ln) recorded for CUGGAGCAAUAUUACGGGAG is above or exactly -2.
Ans. Not fulfilled

Qu. Kindly determine if self-splicing fitness (ln) recorded for AGCUAGCAAUAUUACGGUGA is above or exactly -2.
Ans. Fulfilled

Qu. Kindly determine if self-splicing fitness (ln) recorded for GUGAAGCAAUAUUACGUGCA is above or exactly -2.
Ans. Fulfilled

Qu. Kindly determine if self-splicing fitness (ln) recorded for UUCAAGCAAUAUUACGAAUA is above or exactly -2.
Ans. Not fulfilled

Qu. Kindly determine if self-splicing fitness (ln) recorded for UGGAAGCAAUAUUACGACAU is above or exactly -2.
Ans. Not fulfilled

Qu. Kindly determine if self-splicing fitness (ln) recorded for GCCUAGCAAUAUUACGAGGA is above or exactly -2.
Ans. Fulfilled

Qu. Kindly determine if self-splicing fitness (ln) recorded for CUAAAGCAAUAUUACGAUAU is above or exactly -2.
Ans. Not fulfilled

Qu. Kindly determine if self-splicing fitness (ln) recorded for UCUUAGCAAUAUUACGGGGA is above or exactly -2.
Ans. Fulfilled
